- procedure-text: chemical genetic growth profiling, strain panel (AID 1159580);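 further: tested at 20 µM; growth read once vehicle control cultures reached saturation at 30 °C; 1 = growth at the plate median or of vehicle wells; lower values mean less growth of the strain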
- condition-label: S. cerevisiae deletion strains, growth OD, locus YLR258W, strain gsy2, active compounds read low
Among all 5,500 compounds or so, about 2,000 (36%) were called active. Inconclusive results (about 18%) are left out. Some of the results follow.
endpoint-label: normalized growth

>  <compound>
Nc1nc(N)c2nc(-c3ccccc3)c(N)nc2n1

>  <endpoint-value>
0.999

$$$$
>  <compound>
CC(C)(O)[C@@H]1CC[C@](C)([C@H]2[C@@H](O)C[C@@]3(C)C4C[C@H](O[C@@H]5O[C@H](CO)[C@@H](O)[C@H](O)[C@H]5O)C5C(C)(C)[C@@H](O[C@@H]6OC[C@@H](O)[C@H](O)[C@H]6O)CC[C@@]56C[C@@]46CC[C@]23C)O1 (stereo partly drawn)

>  <endpoint-value>
0.979

$$$$
>  <compound>
CCn1cc(C(=O)O)c(=O)c2cc(F)c(N3CCNCC3)cc21

>  <endpoint-value>
0.988

$$$$
>  <compound>
CC(=O)O[C@H]1C[C@@H](O)C(C)(C)C2C[C@@H](OC(C)=O)[C@]3(C)C(CC[C@@]4(C)[C@H](c5ccoc5)OC(=O)C5OC543)[C@]21C (stereo partly drawn)

>  <endpoint-value>
1

$$$$
>  <compound>
CC(C)(C)C(=O)C(Oc1ccc(Cl)cc1)n1cncn1 (stereo not drawn)

>  <endpoint-value>
0.133

$$$$
>  <compound>
CC(=O)O[C@@H]1CC2C(C)(C)CCC(=O)[C@]2(C)C2CC[C@@]3(C)[C@H](c4ccoc4)OC(=O)C4OC43[C@@]21C (stereo partly drawn)

>  <endpoint-value>
0.996

$$$$
>  <compound>
COc1ccc(-c2coc3cc(OC(C)=O)cc(OC(C)=O)c3c2=O)cc1

>  <endpoint-value>
0.964

$$$$
>  <compound>
CCN1CCN(c2cc3c(cc2F)c(=O)c(C(=O)O)cn3C2CC2)CC1

>  <endpoint-value>
1.01

$$$$
>  <compound>
CC1=C2C(=CO[C@H](C)[C@H]2C)C(=O)C(C(=O)O)=C1O

>  <endpoint-value>
0.96

$$$$
>  <compound>
CC(=O)O[C@H]1C[C@@]2(C)[C@H](c3ccoc3)OC(=O)[C@H]3O[C@]32[C@@]2(C)C1[C@]1(C)C(C[C@H]2OC(C)=O)C(C)(C)[C@H](OC(C)=O)C[C@@H]1OC(C)=O (stereo partly drawn)

>  <endpoint-value>
1.02

$$$$
>  <compound>
O=c1cc(-c2ccc(O)cc2)oc2ccc(O)cc12

>  <endpoint-value>
0.977

$$$$
>  <compound>
NC(=O)CC[C@@H](N)C(=O)O

>  <endpoint-value>
1.02

$$$$
>  <compound>
O=c1c(-c2ccccc2)coc2cc(O)cc(O)c12

>  <endpoint-value>
0.982

$$$$
>  <compound>
CCN(CC)CCNc1ccc(CO)c2sc3ccccc3c(=O)c12

>  <endpoint-value>
1.01

$$$$
>  <compound>
COC(=O)C1=C(C)NC(C)=C(C(=O)OC)C1c1ccccc1[N+](=O)[O-]

>  <endpoint-value>
0.886

$$$$
>  <compound>
CCCCOc1cc(CC2CNC(=O)N2)ccc1OC (stereo not drawn)

>  <endpoint-value>
1.02

$$$$
>  <compound>
O=C1CCc2cc(OCCCCc3nnnn3C3CCCCC3)ccc2N1

>  <endpoint-value>
0.986

$$$$
>  <compound>
O=C(O)/C=C(\CC(=O)O)C(=O)O

>  <endpoint-value>
0.986

$$$$
>  <compound>
COc1ccc(C(=O)/C=C/c2ccccc2)cc1

>  <endpoint-value>
0.936

$$$$
>  <compound>
O=C(/C=C/c1ccccc1)c1ccc(O)cc1

>  <endpoint-value>
0.237

$$$$
>  <compound>
FC(F)(F)C(Cl)Br (stereo not drawn)

>  <endpoint-value>
1.02

$$$$
>  <compound>
Cn1c(=O)c2[nH]c(C3CCCC3)nc2n(C)c1=O

>  <endpoint-value>
0.972

$$$$
>  <compound>
C=C1C2CC[C@@]3(C)[C@H](c4ccoc4)OC(=O)C[C@]13O[C@H]1CC(=O)C(C)(C)[C@H](C(O)C(=O)OC)[C@@]21C (stereo partly drawn)

>  <endpoint-value>
1.01

$$$$
>  <compound>
CC(=O)O[C@H]1C[C@H](O[C@H]2[C@@H](O)C[C@H](O[C@H]3[C@@H](O)C[C@H](O[C@H]4CC[C@@]5(C)C(CCC6C5C[C@@H](O)[C@]5(C)[C@@H](C7=CC(=O)OC7)CC[C@]65O)C4)O[C@@H]3C)O[C@@H]2C)O[C@H](C)[C@H]1O[C@@H]1O[C@H](CO)[C@@H](O)[C@H](O)[C@H]1O (stereo partly drawn)

>  <endpoint-value>
0.994

$$$$
>  <compound>
CC(C)(Oc1ccc(Cl)cc1)C(=O)O

>  <endpoint-value>
1.03

$$$$
>  <compound>
N[C@@H]1CONC1=O

>  <endpoint-value>
0.97

$$$$
>  <compound>
COc1ccc(-c2cc(=O)c3c(OC(C)=O)cc(OC(C)=O)cc3o2)cc1

>  <endpoint-value>
0.971

$$$$
>  <compound>
COC(=O)C1=C(C)NC(C)=C(C(=O)OCC(C)C)C1c1ccccc1[N+](=O)[O-] (stereo not drawn)

>  <endpoint-value>
0.209

$$$$
>  <compound>
COCCOC(=O)C1=C(C)NC(C)=C(C(=O)OC(C)C)C1c1cccc([N+](=O)[O-])c1 (stereo not drawn)

>  <endpoint-value>
1.01

$$$$
>  <compound>
CC(=O)O[C@@H]1CC2C(C)(C)[C@H](O)C[C@H](O)[C@]2(C)C2CC[C@@]3(C)[C@H](c4ccoc4)OC(=O)[C@H]4O[C@]43[C@@]21C (stereo partly drawn)

>  <endpoint-value>
0.995

$$$$
>  <compound>
C=C1C(N)CC2CC1C2(C)C (stereo not drawn)

>  <endpoint-value>
0.993

$$$$
>  <compound>
O=C(O)c1cc(=O)c2ccccc2o1

>  <endpoint-value>
0.985

$$$$
>  <compound>
COc1cc([C@@H]2c3cc4c(cc3[C@H](OC(C)=O)[C@H]3COC(=O)[C@H]23)OCO4)cc(OC)c1OC

>  <endpoint-value>
0.997

$$$$
>  <compound>
O=C(O)c1cn(-c2ccc(F)cc2)c2cc(N3CCNCC3)c(F)cc2c1=O

>  <endpoint-value>
0.979

$$$$
>  <compound>
CCCN1C[C@H](CSC)C[C@@H]2c3cccc4[nH]cc(c34)C[C@H]21

>  <endpoint-value>
1.01

$$$$
>  <compound>
CC(=O)Oc1cc(-c2coc3cc(OC(C)=O)c(OC(C)=O)c(OC(C)=O)c3c2=O)cc(OC(C)=O)c1OC(C)=O

>  <endpoint-value>
0.963

$$$$
>  <compound>
CC(C)c1ccc2c(c1O)CC[C@H]1C3=C(CC[C@]21C)C(=O)OC3

>  <endpoint-value>
0.951

$$$$
>  <compound>
O=C1CC[C@]23C=CC(=O)NCCCCNCCCNC(=O)/C=C/c4ccc(c2c4)O[C@@H]3C1

>  <endpoint-value>
1.01

$$$$

###

- procedure-text: chemical genetic growth profiling, strain panel (AID 1159580);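 further: tested at 20 µM; growth read once vehicle control cultures reached saturation at 30 °C; 1 = growth at the plate median or of vehicle wells; lower values mean less growth of the strain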
- condition-label: S. cerevisiae deletion strains, growth OD, locus YBL061C, strain skt5, active compounds read low
In all, about 5,500 compounds went through this assay and about 2,000 (36%) were called active. Not shown: some 18% with an inconclusive outcome. This is one part of the list.

>  <compound>
NCCc1ccc(O)c(O)c1

>  <normalized growth>
0.998

$$$$
>  <compound>
CN(N=O)C(=O)N[C@@H]1[C@@H](O)[C@H](O)[C@@H](CO)O[C@@H]1O

>  <normalized growth>
1.01

$$$$
>  <compound>
CC1(C)O[C@@H]2CC3C4C[C@H](F)C5=CC(=O)C=C[C@]5(C)[C@@]4(F)[C@@H](O)C[C@]3(C)[C@]2(C(=O)CO)O1 (stereo partly drawn)

>  <normalized growth>
1.01

$$$$
>  <compound>
CCCCCCc1ccc(O)cc1O

>  <normalized growth>
0.927

$$$$
>  <compound>
CN1CCN2c3ccccc3Cc3ccccc3C2C1 (stereo not drawn)

>  <normalized growth>
0.998

$$$$
>  <compound>
NC(=O)CC[C@@H](N)C(=O)O

>  <normalized growth>
1.03

$$$$
>  <compound>
O=c1c(-c2ccc(O)cc2)coc2cc(O)cc(O)c12

>  <normalized growth>
1.01

$$$$
>  <compound>
CC1=C2C(=CO[C@H](C)[C@H]2C)C(=O)C(C(=O)O)=C1O

>  <normalized growth>
0.977

$$$$
>  <compound>
O=C(O)c1cn(-c2ccc(F)cc2)c2cc(N3CCNCC3)c(F)cc2c1=O

>  <normalized growth>
0.981

$$$$
>  <compound>
O=C(/C=C/c1ccccc1)c1ccc(O)cc1

>  <normalized growth>
0.263

$$$$
>  <compound>
COc1ccc(-c2coc3cc(OC(C)=O)cc(OC(C)=O)c3c2=O)cc1

>  <normalized growth>
0.96

$$$$
>  <compound>
CCn1cc(C(=O)O)c(=O)c2cc(F)c(N3CCNCC3)cc21

>  <normalized growth>
0.991

$$$$
>  <compound>
CCN1CCN(c2cc3c(cc2F)c(=O)c(C(=O)O)cn3C2CC2)CC1

>  <normalized growth>
1.01

$$$$
>  <compound>
O=c1c(-c2ccccc2)coc2cc(O)cc(O)c12

>  <normalized growth>
0.978

$$$$
>  <compound>
COc1ccc(C(=O)/C=C/c2ccccc2)cc1

>  <normalized growth>
0.947

$$$$
>  <compound>
COc1c(O)cc2c(-c3ccccc3)cc(=O)oc2c1OC

>  <normalized growth>
1.01

$$$$
>  <compound>
CCCCCCCCCc1ccc(O)cc1

>  <normalized growth>
0.0594

$$$$
>  <compound>
CC(C)=CCc1c2c(c(O)c3c(=O)c(O)c(-c4ccccc4)oc13)C=CC(C)(C)O2

>  <normalized growth>
0.688

$$$$
